test system: MEF A1-2A-BIM cells, caspase 3/7 luminescence, 3 h; test: inducers of caspase signal in A1-dependent MEFs – cell-based, luminescence, retest, A1 inhibitor project, dose response (AID 2765)
Activity calls are given as the source filed them.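 The calls were made as follows: active = half-maximal concentration for the rise in caspase light signal at or below ten times the top tested dose; inconclusive = flat fit between 30% and 70% activity, or unreliable curve fit; inactive = the rest.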
Catalogue of EC50 readings, one per entry.

{"Molecule": "CCOC(=O)c1cccc(NC(=O)CN(c2ccc(C)cc2)S(=O)(=O)c2c(C)noc2C)c1", "EC50": "> 35 µM (inactive)"}
{"Molecule": "O=C(Nc1ccccc1N1CCCC1)C1CCN(S(=O)(=O)c2ccc(F)cc2)CC1", "EC50": "> 35 µM (inactive)"}
{"Molecule": "CCOc1ccc(N2C(=O)CN=C2Nc2ccccc2F)cc1", "EC50": "> 35 µM (inactive)"}
{"Molecule": "Cc1cc(C(=O)N2CCN(c3ccc(F)cc3)CC2)on1", "EC50": "> 35 µM (inactive)"}
{"Molecule": "CCOCCCNC(=O)c1ccc(N2CC3CC(C2)c2cccc(=O)n2C3)c(NC(=O)Nc2cccc(OC)c2)c1 (configuration not stated)", "EC50": "> 35 µM (inactive)"}
{"Molecule": "CCOc1nc(NCCO)nc(NCCC2=CCCCC2)n1", "EC50": "> 35 µM (inactive)"}
{"Molecule": "CC(C)CC(NC(N)=O)C(=O)OCC(=O)Nc1ccc(SC(F)F)cc1 (configuration not stated)", "EC50": "> 35 µM (inactive)"}
{"Molecule": "C=CCn1c(SCc2ccc(F)cc2)nnc1-c1sc2nc(C)cc(C)c2c1N", "EC50": "> 35 µM (inactive)"}
{"Molecule": "CN(C)C(=O)c1ccc(OCC(F)(F)F)nc1", "EC50": "> 35 µM (inactive)"}
{"Molecule": "Oc1ccc(/C=N/N2CCN(C3c4ccccc4-c4ccccc43)CC2)cc1O", "EC50": "> 35 µM (inactive)"}
{"Molecule": "CC(C)N(C(=O)CSc1ccc(S(=O)(=O)N2CCCCC2)cn1)C(C)C", "EC50": "> 35 µM (inactive)"}
{"Molecule": "Cc1cc(N2C(=O)CCC2=O)n(-c2ccccc2)n1", "EC50": "> 35 µM (inactive)"}
{"Molecule": "Nc1cn(C2OC(CO)C(O)C2O)c(=O)[nH]c1=O (configuration not stated)", "EC50": "> 35 µM (inactive)"}
{"Molecule": "O=C(Nc1ccccc1C(=O)N1CCCCCC1)c1ccc(Cl)cc1", "EC50": "> 35 µM (inactive)"}
{"Molecule": "COc1cc2sc3ccc(C#Cc4ccc(N)cc4)cc3c(=O)c2cc1OC", "EC50": "> 35 µM (inactive)"}
{"Molecule": "COc1ccc(CN2CCN(Cc3cc4ccccc4o3)CC2CCO)c(F)c1 (configuration not stated)", "EC50": "> 35 µM (inactive)"}
{"Molecule": "Cc1ccc2c(C(=O)N3CCN(c4ccccc4)CC3)cc(-c3cccnc3)nc2c1C", "EC50": "> 35 µM (inactive)"}
{"Molecule": "COc1ccc(C(=O)Nc2ccc(NC(C)=O)cc2)cc1S(=O)(=O)N1CCCCC1C (configuration not stated)", "EC50": "> 35 µM (inactive)"}
{"Molecule": "Cc1cc(C(C#N)c2ccc(Cl)cc2)c(Cl)cc1NC(=O)c1cc(I)cc(I)c1O (configuration not stated)", "EC50": "> 35 µM (inactive)"}
{"Molecule": "COc1ccc(S(N)(=O)=O)cc1C(=O)OCCCOc1ccc(F)cc1", "EC50": "> 35 µM (inactive)"}
{"Molecule": "COc1ccc(-c2csc(NC(=O)Cc3ccccc3F)n2)c(OC)c1", "EC50": "> 35 µM (inactive)"}
{"Molecule": "Cc1cc(C)cc(N=Cc2c(O)c3ccccc3oc2=O)c1", "EC50": "> 35 µM (inactive)"}

----------
system: MEF A1-2A-BIM cells, caspase 3/7 luminescence, 3 h; test: inducers of caspase signal in A1-dependent MEFs – cell-based, luminescence, retest, A1 inhibitor project, dose response (AID 2765)
Active and inactive are the calls of the source.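 Rule for the calls: active = half-maximal concentration for the rise in caspase light signal at or below ten times the top tested dose; inconclusive = flat fit between 30% and 70% activity, or unreliable curve fit; inactive = the rest.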
Possible outcomes: 1 = active, -1 = inactive

{"Molecule": "COc1ccc(N2CCN(C(=O)CCn3nnc4ccccc43)CC2)cc1", "Assigned label": -1}
{"Molecule": "Cc1c(Cl)cccc1NC(=O)CN1CCN(CCN=CC2=C(O)CC(c3ccccc3)CC2=O)CC1 (stereo not given)", "Assigned label": -1}
{"Molecule": "CC(=O)OCCn1c2nc(=O)[nH]c(=O)c-2nc2cc(C)c(C)cc21", "Assigned label": -1}
{"Molecule": "O=C(NCc1ccccc1)c1cncc(Br)c1", "Assigned label": -1}
{"Molecule": "CC(C)C(=O)Nc1cc(S(=O)(=O)N2CCOCC2)ccc1N1CCCCC1", "Assigned label": -1}
{"Molecule": "COc1ccc(C(=O)NNC(=O)CSc2nc3c(c(=O)n(C)c(=O)n3C)n2C)cc1", "Assigned label": -1}
{"Molecule": "O=C(COc1ccccc1[N+](=O)[O-])Nc1ccc(NC(=O)c2cc3ccccc3o2)cc1", "Assigned label": 1}
{"Molecule": "CC(C)[C@H](NC(=O)[C@@H]1Cc2ccccc2CN1C(=O)OC(C)(C)C)C(=O)NC1CCCC1", "Assigned label": -1}
{"Molecule": "COc1cccc(CNC(=O)CN2C(=O)COc3ccc(S(=O)(=O)N4CCCCCC4)cc32)c1", "Assigned label": -1}
{"Molecule": "C[C@@H]1CN([C@@H](C)CO)C(=O)c2cc(NS(=O)(=O)c3ccc(Cl)cc3)ccc2O[C@H]1CN(C)Cc1ccncc1", "Assigned label": -1}

----------
test system: MEF A1-2A-BIM cells, caspase 3/7 luminescence, 3 h; test: inducers of caspase signal in A1-dependent MEFs – cell-based, luminescence, retest, A1 inhibitor project, dose response (AID 2765)
The source made the active and inactive calls.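 How the source made its calls: active means half-maximal concentration for the rise in caspase light signal at or below ten times the top tested dose; inconclusive means flat fit between 30% and 70% activity, or unreliable curve fit; inactive means the rest.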

{"Cpd smiles": "Cc1cc(C)cc(NC(=O)/C(C#N)=C/c2cn(CC(=O)NCc3ccco3)c3ccccc23)c1", "EC50": "4.65 µM"}
{"Cpd smiles": "NS(=O)(=O)c1ccc(S(=O)(=O)c2ccccc2)nc1", "EC50": "> 35 µM (inactive)"}
{"Cpd smiles": "CN(Cc1cnc2nc(N)nc(N)c2n1)c1ccc(C(=O)N[C@@H](CCC(=O)O)C(=O)O)cc1", "EC50": "> 35 µM (inactive)"}
{"Cpd smiles": "CC(C)CCN(C(=O)Cc1ccc(Cl)c(Cl)c1)c1c(N)n(Cc2ccccc2)c(=O)[nH]c1=O", "EC50": "12 µM"}
{"Cpd smiles": "COc1cccc(-n2nnnc2S(C)(=O)=O)c1", "EC50": "> 35 µM (inactive)"}

----------
system: MEF A1-2A-BIM cells, caspase 3/7 luminescence, 3 h; assay: inducers of caspase signal in A1-dependent MEFs – cell-based, luminescence, retest, A1 inhibitor project, dose response (AID 2765)
Active and inactive are the calls of the source.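 Rule for the calls: active = half-maximal concentration for the rise in caspase light signal at or below ten times the top tested dose; inconclusive = flat fit between 30% and 70% activity, or unreliable curve fit; inactive = the rest.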
Possible outcomes: active, inactive

{"Molecule": "C=CCn1c(SCC(=O)NC2CC2)nnc1-c1ccccn1", "Assigned label": "inactive"}
{"Molecule": "CCOc1cc(/C=C2/C(=N)N3C=CSC3=NC2=O)ccc1OCCCOc1ccccc1C", "Assigned label": "active"}
{"Molecule": "CCCCCC(=O)N1CCCC1", "Assigned label": "inactive"}
{"Molecule": "CS(=O)(=O)c1ncc(Cl)c(C(=O)Nc2ccc(OC(F)F)cc2)n1", "Assigned label": "inactive"}
{"Molecule": "CCN(C[C@H]1N[C@@](CC)(C(=O)OC)[C@H]2C(=O)N(Cc3ccccc3)C(=O)[C@@H]12)C(=O)c1ccc(F)cc1", "Assigned label": "inactive"}
{"Molecule": "O=C(CSc1ncccc1C(=O)O)NC1CCCCC1", "Assigned label": "inactive"}
{"Molecule": "COC(=O)[C@@]1(C)CC[C@]2(C)CC[C@@]3(C)C(=CC(=O)C4[C@@]5(C)CC[C@H](O)C(C)(C)[C@@H]5CC[C@]43C)[C@H]2C1 (stereo not given in full)", "Assigned label": "inactive"}
{"Molecule": "COc1cc(NC(=O)c2nn(C)c3c2CS(=O)(=O)c2ccccc2-3)cc(OC)c1", "Assigned label": "inactive"}
{"Molecule": "CCOc1cccc(C2C(C(=O)c3ccc(C)o3)=C(O)C(=O)N2Cc2ccncc2)c1 (stereo not given)", "Assigned label": "inactive"}
{"Molecule": "CCCS(=O)(=O)C/C(N)=N/OC(=O)c1ccc(Cl)cc1", "Assigned label": "inactive"}

----------
system: MEF A1-2A-BIM cells, caspase 3/7 luminescence, 3 h; assay: inducers of caspase signal in A1-dependent MEFs – cell-based, luminescence, retest, A1 inhibitor project, dose response (AID 2765)
Calls of active or inactive are those of the source.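 How the source made its calls: active means half-maximal concentration for the rise in caspase light signal at or below ten times the top tested dose; inconclusive means flat fit between 30% and 70% activity, or unreliable curve fit; inactive means the rest.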
Possible outcomes: Yes (active), No (inactive)

{"Compound": "Brc1ccc(CN2CCN(Cc3c[nH]c4ccccc34)CC2)cc1", "Assigned label": "No"}
{"Compound": "Cc1ccc(NC(=O)c2ccc(N/N=C/c3cccc(O)c3)c([N+](=O)[O-])c2)cc1", "Assigned label": "Yes"}
{"Compound": "CN(c1ccc(OCC(=O)NC2CCC(O)CC2)cc1)S(=O)(=O)c1ccc(Cl)cc1 (stereo not drawn)", "Assigned label": "No"}
{"Compound": "O=C(O)COc1ccccc1C=NNc1ccc([N+](=O)[O-])cc1S(=O)(=O)Nc1ccc(Cl)cc1", "Assigned label": "No"}
{"Compound": "COc1cc(C(=O)Nc2cc(-c3ccccc3)[nH]n2)cc(OC)c1OC", "Assigned label": "No"}
{"Compound": "CC1(C)OC(=O)C(=Cc2ccc(-c3ccc(S(N)(=O)=O)cc3)o2)C(=O)O1", "Assigned label": "No"}
{"Compound": "O=S1(=O)CCOC[C@H](CC2CCCCC2)N1Cc1cccc(Cl)c1", "Assigned label": "No"}
{"Compound": "CCn1nnc(NC(=O)Cc2ccc(Cl)cc2)n1", "Assigned label": "No"}
{"Compound": "COc1ccccc1NC(=O)Nc1c(C)n(C)n(-c2ccccc2)c1=O", "Assigned label": "No"}
{"Compound": "COCc1cc(C)nc(SCC(=O)Nc2nc(C)cs2)c1C#N", "Assigned label": "No"}
{"Compound": "COc1ccccc1CN1CC(C(=O)NCCN2CCNC2=O)CCC1=O (stereo not drawn)", "Assigned label": "No"}
{"Compound": "O=C(COC(=O)c1ccc(CN2CCCC2=O)cc1)Nc1ccc(F)cc1", "Assigned label": "No"}
{"Compound": "Cc1ccc(/C=C/C(=O)c2ccc([N+](=O)[O-])o2)cc1", "Assigned label": "No"}
{"Compound": "COC(=O)C1=C(C)N(Cc2ccccc2)C(=NCc2cc(OC)c(OC)c(OC)c2)N[C@H]1c1ccccc1", "Assigned label": "No"}
{"Compound": "CCS(=O)(=O)Nc1ccc(Cc2ccncc2)cc1", "Assigned label": "No"}
{"Compound": "Cc1cccc(-n2c(Cc3ccccc3)n[nH]c2=S)c1", "Assigned label": "No"}
{"Compound": "Cc1nc(NN)c2c3c(sc2n1)COC(C)(C)C3", "Assigned label": "No"}
{"Compound": "CC[C@H]1CN2CCc3cc(OC)c(OC)cc3[C@@H]2C[C@@H]1C[C@H]1NCCc2cc(OC)c(OC)cc21", "Assigned label": "No"}
{"Compound": "COc1cc(NC(=O)c2cccs2)ccc1NC(=O)c1cc2ccccc2o1", "Assigned label": "No"}
{"Compound": "O=C1CC(C(=O)Nc2ccccc2)C2(CCCCC2)O1 (stereo not drawn)", "Assigned label": "No"}
{"Compound": "Cc1cc(Br)c2c(c1)C1(OCCO1)C(=O)N2", "Assigned label": "No"}
{"Compound": "O=C(c1cc(-c2ccccn2)nc2ccc(Cl)cc12)N1CCN(CCc2ccccc2)CC1", "Assigned label": "No"}
{"Compound": "Cc1ccc2nc(N(CCCN(C)C)C(=O)c3ccc(S(=O)(=O)N4CCc5ccccc5C4)cc3)sc2c1", "Assigned label": "No"}
{"Compound": "CN(C)C=NC(=O)c1cc(C(=O)c2ccc(Cl)cc2Cl)c[nH]1", "Assigned label": "No"}
{"Compound": "CCCCCCCC/C=C\\CCCCCCCC(=O)NCCc1ccc(O)c(O)c1", "Assigned label": "Yes"}
{"Compound": "O=C(NCCO)C(=O)Nc1cc2c3c(c1)CCN3C(=O)CC2", "Assigned label": "No"}
{"Compound": "Nc1nc(CSc2nc3ccccc3[nH]2)nc(N2CCOCC2)n1", "Assigned label": "No"}
{"Compound": "O=C(O)/C(=C\\c1c(C(=O)O)[nH]c2cc(Cl)cc(Cl)c12)c1ccccc1", "Assigned label": "No"}
{"Compound": "Cc1ccn(C(=O)c2ccc(NC(=O)C3CCCCC3)cc2)n1", "Assigned label": "No"}
{"Compound": "O=C(Cc1ccccc1)Oc1cccc(N2C(=O)CCC2=O)c1", "Assigned label": "No"}
{"Compound": "Cc1ccc(NC(=S)NC(NC(=O)Cc2cccc3ccccc23)C(Cl)(Cl)Cl)cc1 (stereo not drawn)", "Assigned label": "Yes"}
{"Compound": "CSC(SC)=C(C#N)C(=O)c1ccccc1", "Assigned label": "No"}
{"Compound": "C[C@]12CC[C@H](O)C[C@H]1CC[C@@H]1[C@@H]2CC[C@]2(C)[C@@H](C3=CC(=O)OC3)CC[C@]12O", "Assigned label": "No"}
{"Compound": "O=C(Cc1ccc(-n2cccc2)cc1)NC1CCCCC1", "Assigned label": "No"}
{"Compound": "NS(=O)(=O)c1ccc(NC(=O)c2ccc3c(c2)CCCC3)cc1", "Assigned label": "No"}
{"Compound": "Cn1cccc1C(=O)NC(=O)COC(=O)c1ccc(S(C)(=O)=O)cc1", "Assigned label": "No"}
{"Compound": "CCCC(=O)Nc1ncnc2c1ncn2[C@@H]1O[C@@H]2OP(=O)(O)OC[C@H]2[C@H]1OC(=O)CCC", "Assigned label": "No"}
{"Compound": "O=c1c(Cl)c(Cl)cnn1Cc1ccccc1Cl", "Assigned label": "No"}
{"Compound": "CC(C)(C)OC(=O)n1cc(CCO)c2ccccc21", "Assigned label": "No"}
{"Compound": "Cc1cc(C(F)(F)F)n2ncc(-c3cccc(Br)c3)c2n1", "Assigned label": "No"}
{"Compound": "COc1ccc2[nH]c3c(=O)n(/N=C/[C@H]4C(C)C=C(C)CC4C)c(=O)[nH]c3c2c1 (stereo partly drawn)", "Assigned label": "Yes"}
{"Compound": "COc1ccc(C(=O)Nc2cccc3c2CCCC3)cc1", "Assigned label": "No"}
{"Compound": "O=C1C(Cc2ccccc2)SC(=Nc2ccccc2)N1c1ccccc1 (stereo not drawn)", "Assigned label": "No"}
